growth for assorted compounds
System: SK-MEL-2 melanoma
Experiment: NCI-60 one-dose screen, 48 h (100 = growth as untreated, 0 = no growth, -100 = all killed)
Conditions: 10 µM unless noted
The panel holds about 83,000 compounds, 20% with a hit somewhere; the sample as a whole holds those more often.

STRUCTURE AS SMILES: COc1ccc(-n2nnnc2-c2cn[nH]c2C(F)(F)F)cc1
growth, %: 92.4
//
STRUCTURE AS SMILES: CC(=O)Nc1ccc(S(=O)(=O)Cl)cc1
growth, %: 111
//
STRUCTURE AS SMILES: O=C1/C(=C/c2ccc(Cl)cc2)CCC/C1=C\c1ccc(Cl)cc1
growth, %: 117
